System: K4 kissing-loop RNA reporter
Test: apparent KD of K4 kissing-loop reporter; higher = weaker reporter binding
Settings: Eterna round: R107; input ligand: tryptophan 2.4 mM
Task for the reader: assign each of the following sequences its reported apparent KD of K4 kissing-loop reporter.
Number plus unit, in that order.

Examples with their reported apparent KD of K4 kissing-loop reporter follow.
[[record]]
seqtext = "CGCAAGCAGCCAGUGAUGUUGGCUGCCUUGCGAGGACCGGUACGGCCGCCACUCGAAGGCAGCUACUGGUAAACCGUCUAACGGA [Atere]"
reported = "250 nM"

[[record]]
seqtext = "AGGCGGCAAGAUUGAUUGGAAAGUAAUCGACGAGGACCGGUACGGCCGCCACUCGAACACCAGUGAUGUUGGUCUGGCUUAAGCC [Exclusion Tryptophan A GF 20]"
reported = "363 nM"


In the following, a different sequence is considered.
Provide apparent KD of K4 kissing-loop reporter, recorded with K4 kissing-loop RNA reporter, of AAGGUAUCACCAACUUGCAACAAAGGUGAUACCAGCAUCGAAAGAUGCCCUUGGCAGCACCAACUUGCAGUGAUGUUGCAAGUAA [(T)'-(H)'-(T1)-(T2)-(H1)-(H2)_Design10]
170 nM

* * *

Tested on: K4 kissing-loop RNA reporter
Assay: apparent KD of K4 kissing-loop reporter; higher = weaker reporter binding
Details: Eterna round: R107; input ligand: FMN 200 uM
Task for the reader: assign each of the following sequences its reported apparent KD of K4 kissing-loop reporter.
Numbers only, in µM.

[[record]]
seqtext = "GGGAGUAGUGCGGCCGCCACUGUGAAAGAAGAAGAAUAUAGUGAUGUUAUAUAGGAAUUAAAGAAUAGGACCGGGCAUUAGAUUU [SSTRyptB.Q]"
reported = 0.248


Hey, can you go through the list below and give me apparent KD of K4 kissing-loop reporter for every item?
1. GUCUCAAAAGAGGCAAGCACUCACGAGGACAAGGAUAUCAUAUCAAUGAGAAGGUGUCCUCGUCCUCAGUGAUGUUGAGGAGUGC [Omei KL FMN A SS E v4]
2. UUGUUUGGUUGAGAGGUUGGGCGAGAUGAUACCAGUAUAGUAUUGUACCCUUGGCAGCAUAGGAGAGAUAUAGUGAUGUUGUAUG [SSTheophA.W]

0.41
0.419

* * *

System: MS2 coat protein
Experiment: apparent KD of MS2 coat protein; higher = weaker reporter binding
Settings: Eterna round: R107; input ligand: none
Give Fulfilled when the value for apparent KD of MS2 coat protein is at least 40 nM. Give Not fulfilled when it is less.

[[record]]
seqtext = "GAAGAGACCUCGGCCGCCACUCGCCAUGAGGAUCUCCCAUGUAACAUGAGGAUCACCCAUGUACAGAGGACCGGGAGGUCCUAGU [Same State Tryptophan B GF 14]"
grouplabel = "Not fulfilled"

[[record]]
seqtext = "ACAUUUAACUGAAGGAGCGUGAUAAACAUGAGGAUCACCCAUGUACCACAGAUUCUUAGAUCACAGGUAGGUCGCAGACUAAUGA [JR_ExcArginiB_Sub013]"
grouplabel = "Not fulfilled"


API: above_or_equal(metric=apparent KD of MS2 coat protein, cutoff=40 nM) for item GGACUAACCUGAAGGAGCGACACGCACAAAGUGCAAAUUCCUCCACACGAGGAUCACCCGUGUCAGGUAGGUCGCAGGUUAGUCG [ArgBX 28]
Not fulfilled

In plain terms: is recorded apparent KD of MS2 coat protein at least 40 nM for GACAUGAGGAUCACCCAUGUGUAACCAGAAGGAGCGUGCGAAAGCACAGGUAGGUCGCUGGUGGGUUUAGGUUUAGUAGGUGUUC [SSAA NP+V+V2 #3] ?
Fulfilled

Tell me whether apparent KD of MS2 coat protein is at least 40 nM here: CGGACAUGAGGAUCACCCAUGUACACUGAAGGAGCGUCGAGAACGACAGGUAGGUCGCAGGUUGAGGAAGGUGAUGCUCAAGAAG [Exclusion Arginine A GF4]
Fulfilled

Does the reported apparent KD of MS2 coat protein for GGAUAGGACACGGCCGCCACUACCUAGGAUACUAGCAACAUUUGGGUACAUGAGGAUCACCCAUGUAGGACCGGGUGUCCUAUCG fall at or above the 40 nM mark?
Not fulfilled

* * *

Test system: MS2 coat protein
Test: apparent KD of MS2 coat protein; designed switch direction (-1 OFF switch, 1 ON switch): -1; higher = weaker reporter binding
Settings: input ligand: FMN 200 uM
Please go through the items and note down their apparent KD of MS2 coat protein.
Give bare numbers, in nM.

[[record]]
seqtext = "AUGUGCACGCUGCGGUCCUACAUGAGGAUCACCCAUGUGGUCUGGUGGCGUGGGUCACCGGACUUGGCUCGUCUUGU [salish99_S_TOV1_R5_056] (Eterna round: R97, puzzle: Sensor, turn-off variant 1)"
reported = 33.7

[[record]]
seqtext = "UACAUGAGGAUCACCCAUGUUUUGUCGUGUAUGGUAUUUAUCUAGGAUAUCAAUUUAGUUAGUUAUGAGAAGGAGAAUAUUAAU [JMF's solution 76] (Eterna round: R96, puzzle: Exclusion NG 3)"
reported = 48

[[record]]
seqtext = "UUUAGUUCAGGAUAUGUAGAAUUUAACAUGAGGAUCACCCAUGUAGAUCCUGAAUUAACUACAGAAGGGAACAUUU [Exclusion 5: 2:a mod2] (Eterna round: R97, puzzle: Exclusion 5)"
reported = 69.1

[[record]]
seqtext = "UGCAGACGAGGAUAUAGAUUUAGAUACAUGAGGAUCACCCAUGUAUACAUGUAUUUAGAUUUAGAAGGCGUCUGCA [E5/14-A2] (Eterna round: R97, puzzle: Exclusion 5)"
reported = 422


Now consider the entry below.
With MS2 coat protein as the test system, provide measured apparent KD of MS2 coat protein for this sequence: AGGACAUGAGGAUCACCCAUGUAGUGAGGUGUAUCCGAAGACGAGGAUAUACAGAGGAAAUAUCUGUAGAAGGUGUAAUAAAAU [Istediso] (Eterna round: R96, puzzle: Exclusion NG 3)
725

* * *

Tested on: K4 kissing-loop RNA reporter;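 further: bound reporter read as fluorescence of individual clusters on recovered sequencing chips by microscopy, with normalized cluster intensities fitted with a binding model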
Experiment: apparent KD of K4 kissing-loop reporter; higher = weaker reporter binding
Settings: Eterna round: R107; input ligand: theophylline 20 uM
So I've got a bunch of sequences here, and I need their apparent KD of K4 kissing-loop reporter values.
Answers are plain numbers, in nM.

[[record]]
seqtext = "GGAUAGGACAAAGGAUAUGGUAGUGAUGUUACCAAACUGGUUAAACAUGUCAGAAAACUGGCAUGACCAGAAGGUUGUCCUAUCG [FmnBX 27 A11+U75]"
reported = 61.1

[[record]]
seqtext = "GUUACGCAUGGAAGGAGCGCUCUCCGGUUGAUUGACACAGUGAUGUUGUGAUUCUACCGUAAGCAGGUAGGUCGCCAUGUGUAAC [Ex Arginine B K4 13]"
reported = 1050

[[record]]
seqtext = "AAUUUAGUGACGGCCGCCACUAUGGUGAUUUAUUUGUUUGAGUGAUGUUUUGAUGUUUGAUUUUGUAGGACCGGGUUAGGUGAUG [aaacmullin]"
reported = 354

[[record]]
seqtext = "UAGUGAAUAGAAGGAUAUUGAUAUGAAAGAUGCAGUGAUGUUGCCCGUAGCAGUCAGUAAUACGUGCAAGAAGGUCUGUGCGCGA [theeternabot_exclusion_KL_FMN_B_3]"
reported = 127

[[record]]
seqtext = "GGUUCCUCAGUGAUGUUGAGGUGACCUCGGCAGGAUAUAGGCAUUACUAGAAGGGCCAAAAGAACCCUGUCCAGCGACACAGGGA [Zalatiat]"
reported = 250


Fill in reported apparent KD of K4 kissing-loop reporter for this entry: UUAUUAAUAACAGAUACCAGUCCAGAAUGAAUACUAUAGUGAUGUUAUAAUAAAGGGAAGGACCCUUGGCAGCUGUAAUAUAUUU [AstrosSSTheB#1]
338

* * *

Tested on: MS2 coat protein
Experiment: apparent KD of MS2 coat protein; designed switch direction (-1 OFF switch, 1 ON switch): -1; higher = weaker reporter binding
Conditions: input ligand: none
# thresholds on apparent KD of MS2 coat protein define classes: low = under 20 nM, mid = from 20 nM up to 100 nM, high = 100 nM and over

As a guide, the following entries are already answered.
[[record]]
seqtext = "CAACGUAGUAAGGAUAUCCGGCAAAAGGCUACAGGAGAAGGUACUACAUGAGGAUCACCCAUGUGGAACUGUAA [EX6 B.7] (Eterna round: R97, puzzle: Exclusion 6)"
grouplabel = "low"

[[record]]
seqtext = "GCAUGCUUUUUGCUCGUUUACAUGAGGAUCACCCAUGUACAUGGGUGAGCCGCAUGUACAGAAAGGAAAACUUUUUG [Alacar Attempt 2] (Eterna round: R97, puzzle: Sensor, turn-off variant 1)"
grouplabel = "mid"

[[record]]
seqtext = "CAGUACUGAGGAUAUACAUGAGGAUCACCCAUGUGUUCCAGCUAGGGAACUAGCAAAAGUAGAAGGCAGUACUG [salish99_ex3_r3_075] (Eterna round: R96, puzzle: Exclusion 3)"
grouplabel = "mid"

[[record]]
seqtext = "GAGUACUGAGGAUAUACAUGAGGAUCACCCAUGUGUUCCAACUAGGAAUCUAGAAUGUGUAGAAGGCAGUGCUG [salish99_ex3_r4_703] (Eterna round: R97, puzzle: Exclusion 3)"
grouplabel = "high"

[[record]]
seqtext = "UUCGUACAGCUUUGCUGUACGCGUACAUGAGGAUCACCCAUGUAGGAUAUGGUAGGCAAAGCUUACUAGAAGGAUAGAGUGAUC [Mat - Exclusion NG 3 - Mod of JL - D75] (Eterna round: R96, puzzle: Exclusion NG 3)"
grouplabel = "high"


# classify by apparent KD of MS2 coat protein band: GGGAAGAACCAACAAGUAAACAUGAGGAUCACCCAUGUAAACUUCAUGUGCACGCUUUGCGUGCAAGCUCGUCUUAU [AK-miRNA-r3-14] (Eterna round: R97, puzzle: Sensor, turn-off variant 1)
low

Given CGUGAGCGCGUCAGGAUAUGGCGGCGGCGGCGGCGCCAGAAGGGACAUGAGGAUCACCCAUGUUGCGUGCGUGG [Prefect Broudrd's mod of Exclusion] (Eterna round: R97, puzzle: Brourd's mod of Exclusion 4) , name the class its apparent KD of MS2 coat protein places it in.
mid

State the class of the sequence shown: GGCAUGCAAGGAUAUACUUACAGUGAUGUUCGAAUAAGGCUACUUGAGGAUCACCCAAGUAGAAGGUGCAUGCC [Exclusion 2 (Mod JL EX2 4.74 Vienna UCT mod of Mamaed)] (Eterna round: R97, puzzle: Exclusion 2)
mid
